Values were extracted from PubChem BioAssay AID318.

Test system: BDF1 mice, P815 leukemia ip, survival T/C
Experiment: NCI In Vivo Anticancer Drug Screen. Data for tumor model P815 Mast Cell Leukemia (Ascitic) (intraperitoneal) in B6D2F1 (BDF1) mice
Conditions: endpoint: survival time, mean or median; dose: 2.0 mg/kg/injection; schedule: Q01DX010 (ip); vehicle: saline
Inconclusive results and toxic doses are left out. How the source made its calls: active means survival T/C of 150% or more; inactive means T/C below 125% in these data.
Give one outcome, nothing more. List: Yes for active, No for inactive

# count of solved cases: 4
CS(=O)(=O)OCCN(CCOS(C)(=O)=O)c1ccc(N=O)cc1 = No
NC(=O)N(CCCl)N=O = No
C=CC(CN1CC1)OC(C)=O (stereo not given) = No
CC(CCC(C)OS(C)(=O)=O)OS(C)(=O)=O (stereo not given) = No

Pending compound:
Outcome logged for Nc1nc(=S)c2ncn(C3OC(CO)C(O)C3O)c2[nH]1 (stereo not given) in this assay:
Yes

====

Test system: BDF1 mice, P815 leukemia ip, survival T/C
Experiment: NCI In Vivo Anticancer Drug Screen. Data for tumor model P815 Mast Cell Leukemia (Ascitic) (intraperitoneal) in B6D2F1 (BDF1) mice
Conditions: endpoint: survival time, mean or median; dose: 10.0 mg/kg/injection; schedule: Q01DX010 (ip); vehicle: saline
Toxic doses and inconclusive results are not listed. Rule for the calls: active = survival T/C of 150% or more; inactive = T/C below 125% in these data.
Give one outcome, nothing more. List: active, inactive

# count of solved cases: 5
CC1CCOS(=O)O1 (stereo unspecified) = inactive
CC1CN=C(c2ccc(NC(=O)c3ccc(C(=O)Nc4ccc(C5=NCC(C)N5)cc4)cc3)cc2)N1 (stereo unspecified) = active
CCOC(=O)c1[nH]c2ccccc2c1CN(CCCl)CCCl = inactive
CCOC(=O)c1c[nH]c2ccc(N(CCCl)CCCl)cc12 = inactive
Cn1c(N)nc2nc[nH]c2c1=S = inactive

Outcome logged for "Oc1cc(CN(CCCl)CCCl)c(O)cc1CN(CCCl)CCCl" in this assay:
inactive

====

Tested on: BDF1 mice, P815 leukemia ip, survival T/C
Experiment: NCI In Vivo Anticancer Drug Screen. Data for tumor model P815 Mast Cell Leukemia (Ascitic) (intraperitoneal) in B6D2F1 (BDF1) mice
Conditions: endpoint: survival time, mean or median; dose: 250.0 mg/kg/injection; schedule: Q01DX010 (ip); vehicle: saline; higher = longer survival
Inconclusive results and toxic doses are left out.
Experimental Readout: T/C

Consider the following illustrative entries.
O=c1cn[nH]c(=O)[nH]1 = 95 % of control
CC(=O)N(C)C = 91 % of control
O=C(Nc1ccc(C2=NCCN2)cc1)c1ccc(C(=O)Nc2ccc(C3=NCCN3)cc2)cc1 = 108 % of control
CC(=O)Nc1ccc(/C=N/Nc2ccc([N+](=O)[O-])cn2)cc1 = 88 % of control
O=C(Nc1ccc(C2=NCCN2)cc1)c1cc(C(=O)Nc2ccc(C3=NCCN3)cc2)cc([N+](=O)[O-])c1 = 95 % of control

State its T/C on BDF1 mice, P815 leukemia ip, survival T/C: "O=C(Nc1ccc(NC(=O)Nc2ccc(C3=NCCN3)cc2)cc1)Nc1ccc(C2=NCCN2)cc1"
100 % of control

State its T/C on BDF1 mice, P815 leukemia ip, survival T/C: O=C1CCC(N2C(=O)c3ccccc3C2=O)C(=O)N1 (configuration not stated)
96 % of control

====

Test system: BDF1 mice, P815 leukemia ip, survival T/C
Experiment: NCI In Vivo Anticancer Drug Screen. Data for tumor model P815 Mast Cell Leukemia (Ascitic) (intraperitoneal) in B6D2F1 (BDF1) mice
Details: endpoint: survival time, mean or median; dose: 5.0 mg/kg/injection; schedule: Q01DX010 (ip); vehicle: saline
Toxic doses and inconclusive results are not listed. How the source made its calls: active means survival T/C of 150% or more; inactive means T/C below 125% in these data.
Give one outcome, nothing more. List: active, inactive

# count of solved cases: 6
Oc1cc(CN(CCCl)CCCl)c(O)cc1CN(CCCl)CCCl = inactive
O=c1[nH]cc(F)c(=O)[nH]1 = active
CN(C)c1ccc(/C=C/c2ccnc3ccccc23)cc1 = inactive
CCOC(=O)c1c[nH]c2ccc(N(CCCl)CCCl)cc12 = inactive
Nc1nc(=S)c2[nH]cnc2[nH]1 = inactive
N=C(N)SCc1c2ccccc2c(CSC(=N)N)c2ccccc12 = active

Outcome logged for O=c1[nH]c(=O)n(C2CC(O)C(CO)O2)cc1F (configuration not stated) in this assay:
inactive

====

Test system: BDF1 mice, P815 leukemia ip, survival T/C
Assay: NCI In Vivo Anticancer Drug Screen. Data for tumor model P815 Mast Cell Leukemia (Ascitic) (intraperitoneal) in B6D2F1 (BDF1) mice
Details: endpoint: survival time, mean or median; dose: 8.0 mg/kg/injection; schedule: Q01DX010 (ip); vehicle: saline
Toxic doses and inconclusive results are not listed. The calls were made as follows: active = survival T/C of 150% or more; inactive = T/C below 125% in these data.
Give one outcome, nothing more. List: y = active, n = inactive

Nc1nc(F)nc2c1ncn2C1OC(CO)C(O)C1O (stereo not given) = n

Outcome logged for "O=C(Nc1ccc(C2=NCCN2)cc1)c1cccc(C(=O)Nc2ccc(C3=NCCN3)cc2)c1" in this assay:
n

Outcome logged for "O=C(Nc1ccc(C2=NCCN2)cc1)c1ccc(C(=O)Nc2ccc(C3=NCCN3)cc2)c([N+](=O)[O-])c1" in this assay:
y

Outcome logged for "CCCNC(=NC)c1ccc(NC(=O)c2ccc(C(=O)Nc3ccc(C(=NC)NCCC)cc3)cc2)cc1" in this assay:
n

Outcome logged for C=CC(CN1CC1)OC(C)=O (stereo not given) in this assay:
n

====

Tested on: BDF1 mice, P815 leukemia ip, survival T/C
Experiment: NCI In Vivo Anticancer Drug Screen. Data for tumor model P815 Mast Cell Leukemia (Ascitic) (intraperitoneal) in B6D2F1 (BDF1) mice
Conditions: endpoint: survival time, mean or median; dose: 20.0 mg/kg/injection; schedule: Q01DX010 (ip); vehicle: saline
Inconclusive results and toxic doses are left out. How the source made its calls: active means survival T/C of 150% or more; inactive means T/C below 125% in these data.
Give one outcome, nothing more. List: class 1 (active), class 0 (inactive)

# count of solved cases: 3
Cc1cc(N(CCCl)CCCl)ccc1N=Nc1ccccc1C(=O)O = class 0
N=C(N)SCc1c2ccccc2c(CSC(=N)N)c2ccccc12 = class 1
CCOC(=O)c1[nH]c2ccccc2c1CN(CCCl)CCCl = class 0

Outcome logged for "CCOC(=O)c1c[nH]c2ccc(N(CCCl)CCCl)cc12" in this assay:
class 0

Outcome logged for CC1CCOS(=O)O1 (configuration not stated) in this assay:
class 0

Outcome logged for "CN=C(NC)c1ccc(NC(=O)Nc2ccc(NC(=O)Nc3ccc(C(=NC)NC)cc3)cc2)cc1" in this assay:
class 0

Outcome logged for "CNc1nc(Nc2ccc(C3=NCCN3)cc2)nc(Nc2ccc(C3=NCCN3)cc2)n1" in this assay:
class 0

====

System: BDF1 mice, P815 leukemia ip, survival T/C
Assay: NCI In Vivo Anticancer Drug Screen. Data for tumor model P815 Mast Cell Leukemia (Ascitic) (intraperitoneal) in B6D2F1 (BDF1) mice
Details: endpoint: survival time, mean or median; dose: 40.0 mg/kg/injection; schedule: Q01DX010 (ip); vehicle: saline
Inconclusive results and toxic doses are left out. The calls were made as follows: active = survival T/C of 150% or more; inactive = T/C below 125% in these data.
Give one outcome, nothing more. List: active, inactive

# count of solved cases: 5
O=c1[nH]c(=O)n(C2CC(O)C(CO)O2)cc1F (stereo unspecified) = inactive
O=C(Nc1cccc(NC(=O)Nc2cccc(C3=NCCN3)c2)c1)Nc1cccc(C2=NCCN2)c1 = inactive
CCOC(=O)c1c[nH]c2ccc(N(CCCl)CCCl)cc12 = inactive
C[C@@H]1C[C@@H]([C@H](O)CC2CC(=O)NC(=O)C2)C(=O)[C@@H](C)C1 = inactive
Cc1cc(N(CCCl)CCCl)ccc1N=Nc1ccccc1C(=O)O = inactive

Pending compound:
Outcome logged for "CCOC(=O)c1[nH]c2ccccc2c1CN(CCCl)CCCl" in this assay:
inactive

====

Tested on: BDF1 mice, P815 leukemia ip, survival T/C
Assay: NCI In Vivo Anticancer Drug Screen. Data for tumor model P815 Mast Cell Leukemia (Ascitic) (intraperitoneal) in B6D2F1 (BDF1) mice
Conditions: endpoint: survival time, mean or median; dose: 20.0 mg/kg/injection; schedule: Q01DX015 (ip); vehicle: carboxymethylcellulose (CMC)
Toxic doses and inconclusive results are not listed. The calls were made as follows: active = survival T/C of 150% or more; inactive = T/C below 125% in these data.
Give one outcome, nothing more. List: yes for active, no for inactive

Outcome logged for "CCCCN(CCCC)CCCCCN" in this assay:
no

Outcome logged for "O=c1[nH]cc(F)c(=O)[nH]1" in this assay:
yes

Outcome logged for "COc1cc([C@@H]2c3cc4c(cc3[C@H](O)[C@H]3COC(=O)[C@@H]23)OCO4)cc(OC)c1OC" in this assay:
yes

Outcome logged for CN(Cc1cnc2nc(N)nc(N)c2n1)c1c(Cl)cc(C(=O)NC(CCC(=O)O)C(=O)O)cc1Cl (centres undefined) in this assay:
yes

====

Test system: BDF1 mice, P815 leukemia ip, survival T/C
Assay: NCI In Vivo Anticancer Drug Screen. Data for tumor model P815 Mast Cell Leukemia (Ascitic) (intraperitoneal) in B6D2F1 (BDF1) mice
Conditions: endpoint: survival time, mean or median; dose: 18.0 mg/kg/injection; schedule: Q01DX010 (ip); vehicle: saline; higher = longer survival
Toxic doses and inconclusive results are not listed.
Experimental Readout: T/C

Consider the following illustrative entries.
CN=C(NC)c1ccc(NC(=O)c2ccc(C(=O)Nc3ccc(C(=NC)NC)cc3)c(Cl)c2)cc1 = 91 % of control
O=C(Nc1ccc(C2=NCCN2)cc1)c1ccc(NC(=O)c2ccc(C3=NCCN3)cc2)cc1 = 112 % of control
CC1CN=C(c2ccc(NC(=O)c3cccc(C(=O)Nc4ccc(C5=NCC(C)N5)cc4)c3)cc2)N1 (centres undefined) = 104 % of control

State its T/C on BDF1 mice, P815 leukemia ip, survival T/C: "CCCNC(=NC)c1ccc(NC(=O)c2ccc(C(=O)Nc3ccc(C(=NC)NCCC)cc3)cc2)cc1"
100 % of control
